target: human GPR40 (Homo sapiens, UniProt O14842); test: GPR40 calcium flux assay, human GPR40; conditions: HEK293 cells stably expressing GPR40; table does not say human or rat
Sequence (O14842 whole entry): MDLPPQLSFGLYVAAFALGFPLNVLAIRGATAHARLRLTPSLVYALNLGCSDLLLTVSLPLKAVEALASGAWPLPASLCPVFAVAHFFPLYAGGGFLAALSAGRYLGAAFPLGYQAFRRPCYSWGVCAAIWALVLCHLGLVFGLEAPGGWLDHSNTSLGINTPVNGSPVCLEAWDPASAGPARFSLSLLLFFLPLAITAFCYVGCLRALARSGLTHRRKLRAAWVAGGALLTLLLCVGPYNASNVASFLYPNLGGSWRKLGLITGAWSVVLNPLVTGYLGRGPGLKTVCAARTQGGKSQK
pEC50: −log10 of the molar value.
REPORTED_METRIC: pEC50

Examples from the recorded data:
COMPOUND	REPORTED_METRIC	RESULT_NUMBER
O=C(O)CCc1ccc(OCC2=C(C3CCCC3)CCC2)cc1C1CC1	pEC50	6.76
O=C(O)CCc1ccc(OCC2=C(C3CC4CCC3C4)CCCC2)cc1C(F)(F)F (centres unmarked)	pEC50	5.81

1. CC(C)CC1=C(COc2ccc(CCC(=O)O)c(C(F)(F)F)c2)CCC1
2. Cc1ccc(F)c(C2=C(COc3cc(C)c(CCC(=O)O)cc3F)CCC2)c1
3. Cc1ccc(C2=C(COc3ccc(CCC(=O)O)c(C(F)(F)F)c3)CCC2)c(F)c1
Qu. I would appreciate it if you could sort these 3 compounds by pEC50, starting from the smallest number. A complete answer lists every label in the requested sequence.
Ans. 2, 3, 1
(2: 6.03, 3: 6.45, 1: 7.92)
